# Tested on: Liver microsome
# protocol details: Drug metabolism in beagle dog liver microsomes assessed as 1alpha-hydroxylcinobufagin formation at 100 uM at 37 degC after 30 mins by UFLC-ESI-MS analysis
# Format: ADME, Canis lupus familiaris
# recorded conditions: 0.5 h, read-out: Km(app)
readout name: Km (µM)
Unit µM implied. Number only.

So for CC(=O)O[C@H]1[C@H]2O[C@]23[C@@H]2CC[C@@H]4C[C@@H](O)CC[C@]4(C)[C@H]2CC[C@]3(C)[C@H]1c1ccc(=O)oc1 , the logged Km turned out to be 3.3

----------
# protocol details: Drug metabolism in Swiss-Hauschka (ICR) mouse liver microsomes assessed as 1alpha-hydroxylcinobufagin formation at 100 uM at 37 degC after 30 mins by UFLC-ESI-MS analysis
# Type: ADME
# recorded conditions: 0.5 h, read-out: Km(app)
readout name: Km (µM)
Unit µM implied. Number only.

So for CC(=O)O[C@H]1[C@H]2O[C@]23[C@@H]2CC[C@@H]4C[C@@H](O)CC[C@]4(C)[C@H]2CC[C@]3(C)[C@H]1c1ccc(=O)oc1 , the logged Km turned out to be 14.1

The values you see were collected from ChEMBL document CHEMBL3526081.
